procedure_text: refractive index (Na D-line) (dimensionless)
cond: 313.15 K; 100 kPa; Liquid; Standard Abbe refractometry
± gives the expanded uncertainty stated by the source.
observed_property: refractive index

-- ask Could you please provide reported refractive index for OCCCCCO ? Thanks!
-- reply 1.4441 ± 0.029

-- ask Could you please provide reported refractive index for O ? Thanks!
-- reply 1.3305 ± 0.027

-- ask Could you please provide reported refractive index for OCCO ? Thanks!
-- reply 1.4257 ± 0.029

-- ask Could you please provide reported refractive index for OCCCO ? Thanks!
-- reply 1.434 ± 0.029

* * *

Record form. Attribute: refractive index. Fill in for each entry.
procedure_text: refractive index (Na D-line) (dimensionless)
cond: 303.15 K; 100 kPa; Liquid; Standard Abbe refractometry
Could you keep your reply to the number by itself?

-- ask Could you please provide reported refractive index for O ? Thanks!
-- reply 1.3318

-- ask Could you please provide reported refractive index for OCCCO ? Thanks!
-- reply 1.4367

-- ask Could you please provide reported refractive index for OCCO ? Thanks!
-- reply 1.4282

-- ask Could you please provide reported refractive index for OCCCCCO ? Thanks!
-- reply 1.4466

* * *

cond: 293.15 K; 100 kPa; Liquid; Falling or rolling sphere viscometry
observed_property: viscosity (mPa·s)
Give just the number in mPa·s; leave the unit off.

-- ask Could you please provide reported viscosity for OCCO [1,2-ethanediol] ? Thanks!
-- reply 21.13

-- ask Could you please provide reported viscosity for OCCCO [propan-1,3-diol] ? Thanks!
-- reply 51.55

-- ask Could you please provide reported viscosity for O [water] ? Thanks!
-- reply 0.949

-- ask Could you please provide reported viscosity for OCCCCCO [1,5-pentanediol] ? Thanks!
-- reply 118.7

Data origin: the NIST ThermoML archive (doi:10.1021/acs.jced.6b00526)
